TARGET ENTITY: Trypsin
EXPERIMENT DESCRIPTION: Trypsin selectivity assay
Format: biochemical
CONDITION LABEL: Table 6.2; headed Fluorogenic Assay
Recorded Ki by entry

Consider the following illustrative entries.
# MOLECULE, OBSERVED
measured = [
    ("CC(=O)N[C@@H](Cc1ccccc1)C(=O)N[C@@H](CC(C)C)C(=O)N[C@@H](Cc1ccccc1)C(=O)N[C@@H](CCCNC(=N)N)C(=O)c1nc2ccccc2s1 [Compound 7063, Ac-FLFR(SEQ ID NO: 19)-Kbt]", "0.27 nM"),
    ("CC(=O)N[C@@H](CO)C(=O)N[C@@H](CCCCN)C(=O)N[C@@H](CC(C)C)C(=O)N[C@@H](CCCNC(=N)N)C(=O)c1nc2ccccc2s1 [Compound 7053, Ac-SKLR(SEQ ID NO: 10)-Kbt]", "0.16 nM"),
    ("CC(=O)N[C@@H](CCCCN)C(=O)N[C@@H](CCCNC(=N)N)C(=O)N[C@@H](CC(C)C)C(=O)N[C@@H](CCCNC(=N)N)C(=O)c1nc2ccccc2s1 [Compound 7054, Ac-KRLR(SEQ ID NO: 8)-Kbt]", "0.82 nM"),
    ("COC(=O)c1ccc(CNC(=O)c2ccc3nc(C(=O)[C@H](CCCNC(=N)N)NC(=O)[C@H](CC(C)C)NC(=O)[C@H](CCCNC(=N)N)NC(=O)[C@H](CCCCN)NC(C)=O)sc3c2)cc1 [Compound 7158, Ac-KRLR(SEQ ID NO: 8)-kbt-Benzyl-4-COOMe]", "0.05 nM"),
]

Specify reported Ki for the molecule shown: COC(=O)c1cccc(CNC(=O)c2ccc3nc(C(=O)[C@H](CCCNC(=N)N)NC(=O)[C@H](CC(C)C)NC(=O)[C@H](CCCNC(=N)N)NC(=O)[C@H](CCCCN)NC(C)=O)sc3c2)c1 [Compound 7159, Ac-KRLR(SEQ ID NO: 8)-kbt-Benzyl-3-COOMe]
0.04 nM

Specify reported Ki for the molecule shown: CC(=O)N[C@@H](CCCCN)C(=O)N[C@@H](CCC(N)=O)C(=O)N[C@@H](CC(C)C)C(=O)N[C@@H](CCCNC(=N)N)C(=O)c1nc2ccccc2s1 [Compound 7006, Ac-KQLR(SEQ ID NO: 1)-Kbt]
0.24 nM

Specify reported Ki for the molecule shown: N=C(N)NCCC[C@H](NC(=O)[C@H](Cc1ccccc1)NC(=O)OCC1c2ccccc2-c2ccccc21)C(=O)c1nc2ccccc2s1 [Compound 7187-14, Fmoc-FR-kbt]
14.3 nM

Specify reported Ki for the molecule shown: CC(C)C[C@H](NC(=O)[C@H](CCCNC(=N)N)NC(=O)[C@@H](N)Cc1c[nH]c2ccccc12)C(=O)N[C@@H](CCCNC(=N)N)C(=O)c1nc2ccccc2s1 [Compound 7117, H-WRLR(SEQ ID NO: 9)-Kbt]
0.96 nM

* * *

TARGET ENTITY: Trypsin
EXPERIMENT DESCRIPTION: Trypsin selectivity assay
Format: biochemical
CONDITION LABEL: Table 9.4
READOUT TYPE: Ki

Specify reported Ki for the compound shown: N=C(N)c1cccc(C[C@H](NS(=O)(=O)c2ccc3ccccc3c2)C(=O)N2CCN(C(=O)NCc3ccc(Br)cc3)CC2)c1 [Compound 25a]
2.2 nM

* * *

TARGET ENTITY: thrombin (Homo sapiens, UniProt P00734)
EXPERIMENT DESCRIPTION: Chromogenic kinetic enzyme assay of thrombin
Type: biochemical
CONDITION LABEL: Table 6.2; headed Fluorogenic Assay; read-out: Thrombin Ki
Starred links: 1 amine or outer side, 2 acyl side, 3 side chain; linkers in the order of their positions; H or OH if unused. Non-standard residues stand in square brackets, D forms with d. Residues, ends and D or L forms follow the SMILES beside them. X1 = N=C(N)NCCC[C@H](N[*:1])C(=O)c1nc2ccc(C(=O)[*:2])cc2s1
Recorded Ki by entry
Kindly answer with a numeric value in nM, unit omitted.

Consider the following illustrative entries.
# MOLECULE, DISPLAY UNIT, Ki
measured = [
    ("CC(=O)N[C@@H](CCCCN)C(=O)N[C@@H](CCCNC(=N)N)C(=O)N[C@@H](CC(C)C)C(=O)N[C@@H](CCCNC(=N)N)C(=O)c1nc2ccc(C(=O)N[C@H](C(N)=O)C(C)C)cc2s1 [Compound 7115, Ac-KRLR(SEQ ID NO: 8)-Kbt-Val—NH2] (Ac-KRL[X1]V-NH2)", "nM", 1560),
    ("CC(=O)N[C@@H](CO)C(=O)N[C@@H](CCCCN)C(=O)N[C@@H](CC(C)C)C(=O)N[C@@H](CCCNC(=N)N)C(=O)c1nc2ccc(C(=O)Nc3ccncc3)cc2s1 [Compound 7126]", "nM", 3430),
    ("COC(=O)c1ccc(CNC(=O)c2ccc3nc(C(=O)[C@H](CCCNC(=N)N)NC(=O)[C@H](CC(C)C)NC(=O)[C@H](CCCNC(=N)N)NC(=O)[C@H](CCCCN)NC(C)=O)sc3c2)cc1 [Compound 7158, Ac-KRLR(SEQ ID NO: 8)-kbt-Benzyl-4-COOMe]", "nM", 20.9),
]

Next item in the queue.
Specify reported Ki for the molecule shown: CC(C)C[C@H](NC(=O)[C@@H](N)CC(C)C)C(=O)N[C@@H](CCCNC(=N)N)C(=O)c1nc2ccc(C(=O)N[C@H](C(N)=O)C(C)C)cc2s1 [Compound 7182, H-LLR-kbt V amide]
101

* * *

Recorded Ki by entry
TARGET ENTITY: hepsin (Homo sapiens, UniProt P05981)
Construct: purchased R&D Systems 4776-SE-010
Sequence (P05981 163-417 limits assumed): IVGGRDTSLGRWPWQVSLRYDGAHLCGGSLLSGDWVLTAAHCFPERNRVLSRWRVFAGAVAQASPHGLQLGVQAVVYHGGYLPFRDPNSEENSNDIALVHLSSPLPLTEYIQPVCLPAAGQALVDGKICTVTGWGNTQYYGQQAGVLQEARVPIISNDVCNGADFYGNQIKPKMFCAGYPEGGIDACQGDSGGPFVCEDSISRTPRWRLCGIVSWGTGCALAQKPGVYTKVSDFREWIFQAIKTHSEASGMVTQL
Sequence (P05981 45-162 partner limits assumed): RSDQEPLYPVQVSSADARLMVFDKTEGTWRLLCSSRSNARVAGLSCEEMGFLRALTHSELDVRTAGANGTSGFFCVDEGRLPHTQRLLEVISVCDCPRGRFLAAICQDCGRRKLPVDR
EXPERIMENT DESCRIPTION: Fluorescent kinetic enzyme inhibitor assay of hepsin
Format: biochemical
CONDITION LABEL: Table 4.2; Boc-QAR-AMC substrate; read-out: Hepsin Ki

Consider the following illustrative entries.
# COMPOUND, TARGET ENTITY, Ki
data = [
    ("CC(=O)N[C@@H](CC(N)=O)C(=O)N[C@@H](CCCCN)C(=O)N[C@@H](CC(C)C)C(=O)N[C@@H](CCCNC(=N)N)C(=O)c1nccs1 [Compound 6d, Ac-NKLR(SEQ ID NO: 14)-kt]", "hepsin (Homo sapiens, UniProt P05981)", "1.41 nM"),
    ("CC(=O)N[C@@H](CO)C(=O)N[C@@H](CCCCN)C(=O)N[C@@H](CC(C)C)C(=O)N[C@@H](CCCNC(=N)N)C(=O)c1nccs1 [Compound 6, Ac-SKLR(SEQ ID NO: 10)-kt]", "hepsin (Homo sapiens, UniProt P05981)", "1.2 nM"),
]

Next item in the queue.
Specify reported Ki for the compound shown: N=C(N)c1ccc2cc(OC(=O)c3ccc(N=C(N)N)cc3)ccc2c1 [Nafamostat, reference compound]
0.53 nM

* * *

Recorded Ki by entry
TARGET ENTITY: HGFA (Homo sapiens, UniProt Q04756)
Construct: His6 tag (N); seven amino acid spacer and seven amino acid TEV cleavage site (N); Honey Bee melittin signal peptide (N); made in house; host or cells: High 5 insect cells (baculovirus; virus raised in Sf9)
Sequence (Q04756 373-655): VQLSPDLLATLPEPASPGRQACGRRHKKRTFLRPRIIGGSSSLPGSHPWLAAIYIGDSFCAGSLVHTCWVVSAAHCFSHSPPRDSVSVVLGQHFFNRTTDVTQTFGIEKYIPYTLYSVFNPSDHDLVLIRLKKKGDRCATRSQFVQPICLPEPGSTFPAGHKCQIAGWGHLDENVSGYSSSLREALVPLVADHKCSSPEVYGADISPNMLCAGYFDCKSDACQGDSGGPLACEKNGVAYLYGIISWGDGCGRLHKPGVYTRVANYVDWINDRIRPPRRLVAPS
EXPERIMENT DESCRIPTION: Fluorescent kinetic enzyme inhibitor assay of HGFA
Type: biochemical
CONDITION LABEL: Table 9.2; Fluorogenic Assay; read-out: HGFA Ki

Consider the following illustrative entries.
# MOLECULE, Ki
data = [
    ("N=C(N)c1cccc(C[C@H](NS(=O)(=O)c2ccc3ccccc3c2)C(=O)N2CCC[C@@H](NC(=O)OCc3ccccc3)C2)c1 [Compound 25f]", "> 50 µM"),
    ("Cc1ccc(S(=O)(=O)N[C@@H](Cc2cccc(C(=N)N)c2)C(=O)N2CCC[C@H](NC(=O)OCc3ccccc3)C2)cc1", "> 50 µM"),
]

Next item in the queue.
Specify reported Ki for the molecule shown: Cc1ccc(S(=O)(=O)N[C@@H](Cc2cccc(C(=N)N)c2)C(=O)N2CCCC(C(=O)NCCc3ccccc3)C2)cc1 (stereo partly drawn) [Compound 25c]
> 50 µM

* * *

TARGET ENTITY: HGFA (Homo sapiens, UniProt Q04756)
Construct: His6 tag (N); seven amino acid spacer and seven amino acid TEV cleavage site (N); Honey Bee melittin signal peptide (N); made in house; host or cells: High 5 insect cells (baculovirus; virus raised in Sf9)
EXPERIMENT DESCRIPTION: Fluorescent kinetic enzyme inhibitor assay of HGFA
Format: biochemical
CONDITION LABEL: Table 4.2; Boc-QLR-AMC substrate; read-out: HGFA Ki
READOUT TYPE: pKi
Please report pKi as the negative decimal logarithm of the molar concentration, giving only the number.

Consider the following illustrative entries.
# MOLECULE, pKi
measured = [
    ("CC(=O)N[C@@H](CC(C)C)C(=O)N[C@@H](CC(C)C)C(=O)N[C@H](C=O)CCCNC(=N)N [Leupeptin, reference compound]", 6.73),
    ("CC(=O)N[C@@H](CO)C(=O)N[C@@H](Cc1c[nH]c2ccccc12)C(=O)N[C@@H](CC(C)C)C(=O)N[C@@H](CCCNC(=N)N)C(=O)c1nccs1 [Compound 6g, Ac-SWLR(SEQ ID NO: 17)-kt]", 7.20),
    ("CC(=O)N[C@@H](CO)C(=O)N[C@@H](CCCCN)C(=O)N[C@@H](Cc1ccccc1)C(=O)N[C@@H](CCCNC(=N)N)C(=O)c1nccs1 [Compound 6c, Ac-SKFR(SEQ ID NO: 13)-kt]", 7.24),
    ("CC(=O)N[C@@H](CCCCN)C(=O)N[C@@H](CCCNC(=N)N)C(=O)N[C@@H](CC(C)C)C(=O)N[C@@H](CCCNC(=N)N)C(=O)c1nccs1 [Compound 5g, Ac-KRLR(SEQ ID NO: 8)-kt]", 7.92),
    ("CC(=O)N[C@@H](CCCCN)C(=O)N[C@@H](Cc1ccccc1)C(=O)N[C@@H](CC(C)C)C(=O)N[C@@H](CCCNC(=N)N)C(=O)c1nccs1 [Compound 5d, Ac-KFLR(SEQ ID NO: 5)-kt]", 7.10),
]

Consider the molecule CC(=O)N[C@@H](CC(N)=O)C(=O)N[C@@H](CCCCN)C(=O)N[C@@H](CC(C)C)C(=O)N[C@@H](CCCNC(=N)N)C(=O)c1nccs1 [Compound 6d, Ac-NKLR(SEQ ID NO: 14)-kt] tested on HGFA (Homo sapiens, UniProt Q04756); state its pKi.
7.10

Consider the molecule CC(=O)N[C@@H](CCCCN)C(=O)N[C@@H](CCC(N)=O)C(=O)N[C@@H](CC(C)C)C(=O)N[C@@H](CCCNC(=N)N)C(=O)c1nccs1 [Compound 5, Ac-KQLR(SEQ ID NO: 1)-kt] tested on HGFA (Homo sapiens, UniProt Q04756); state its pKi.
7.15
